# credit: ChEMBL document CHEMBL1221232

The following compounds are listed with their measured MIC values.
system: Staphylococcus aureus; assay: Antibacterial activity against erythromycin-sensitive Staphylococcus aureus ATCC 13709 by broth microdilution method; format: functional
Response body: numeric value in µg/mL, unit text excluded.

IN: Please give the measured MIC for this compound: CC[C@H]1OC(=O)[C@H](C)[C@@H](O[C@H]2C[C@@](C)(OC)[C@@H](O)[C@H](C)O2)[C@H](C)[C@@H](O[C@@H]2O[C@H](C)C[C@H](N(C)C)[C@H]2O)[C@](C)(O)C[C@@H](C)CN(C)[C@H](C)[C@@H](O)[C@]1(C)O
OUT: 0.5

IN: Name the recorded MIC for CC[C@H]1OC(=O)[C@H](C)[C@@H](O[C@@H]2O[C@@H](C)C[C@](C)(OC)[C@H]2OC(=O)CCOCCOCCCc2ccc3c(c2)c(=O)c(C(=O)O)cn3CC)[C@H](C)[C@@H](O[C@@H]2O[C@H](C)C[C@H](N(C)C)[C@H]2O)[C@](C)(O)C[C@@H](C)/C(=N\OCOCCOC)[C@H](C)[C@@H](O)[C@]1(C)O .
OUT: 0.5

###

test system: Streptococcus pneumoniae; test: Antibacterial activity against constitutive MLS-resistance Streptococcus pneumoniae 58 by broth microdilution method; format: functional
QUANTITY MEASURED: MIC (µg/mL)
// units = µg/mL; emit number, no label

IN: Requested field: MIC. Item: CC[C@H]1OC(=O)[C@H](C)[C@@H](O[C@@H]2O[C@@H](C)C[C@](C)(OC)[C@H]2OC(=O)CCOCCOCCCc2ccc3c(c2)c(=O)c(C(=O)O)cn3CC)[C@H](C)[C@@H](O[C@@H]2O[C@H](C)C[C@H](N(C)C)[C@H]2O)[C@](C)(O)C[C@@H](C)/C(=N\OCOCCOC)[C@H](C)[C@@H](O)[C@]1(C)O
OUT: 1

###

In this section we review reported MIC values for a set of molecules.
tested on: Moraxella catarrhalis; test: Antibacterial activity against Moraxella catarrhalis ATCC 23246 by broth microdilution method; type: functional
# output: bare number, implied unit µg/mL

>  <GIVEN SMILES>
CC[C@H]1OC(=O)[C@H](C)[C@@H](O[C@@H]2O[C@@H](C)C[C@](C)(OC)[C@H]2OC(=O)CCOCCOCCCc2ccc3c(c2)c(=O)c(C(=O)O)cn3CC)[C@H](C)[C@@H](O[C@@H]2O[C@H](C)C[C@H](N(C)C)[C@H]2O)[C@](C)(OC)C[C@@H](C)C(=O)[C@H](C)[C@H]2NC(=O)O[C@@]21C

>  <MIC (µg/mL)>
1

$$$$

Below: the item to evaluate.
IN: Fill in the blank: the reported MIC of CCCn1cc(C(=O)O)c(=O)c2cc(CCCOCCOCCC(=O)O[C@H]3[C@H](C)O[C@@H](O[C@H]4[C@H](C)[C@@H](O[C@@H]5O[C@H](C)C[C@H](N(C)C)[C@H]5O)[C@](C)(O)C[C@@H](C)CN(C)[C@H](C)[C@@H](O)[C@](C)(O)[C@@H](CC)OC(=O)[C@@H]4C)C[C@@]3(C)OC)ccc21 is ____.
OUT: 0.5

###

test system: Staphylococcus aureus; assay: Antibacterial activity against efflux-mediated macrolide resistance Staphylococcus aureus PK1 by broth microdilution method; format: functional
QUANTITY MEASURED: MIC (µg/mL)
Provide only the numeric value, understood in µg/mL.

>  <GIVEN SMILES>
CC[C@H]1OC(=O)[C@H](C)[C@@H](O[C@H]2C[C@@](C)(OC)[C@@H](OC(=O)CCOCCOCCCc3ccc4c(c3)c(=O)c(C(=O)O)cn4CC)[C@H](C)O2)[C@H](C)[C@@H](O[C@@H]2O[C@H](C)C[C@H](N(C)C)[C@H]2O)[C@](C)(O)C[C@@H](C)CN(C)[C@H](C)[C@@H](O)[C@]1(C)O

>  <TESTED ON>
Staphylococcus aureus

>  <VALUE UNITS>
µg/mL

>  <VALUE>
0.25

$$$$

Next, consider the following compound.
IN: Record lookup: for Staphylococcus aureus, what MIC belongs to CC[C@H]1OC(=O)[C@H](C)[C@@H](O[C@@H]2O[C@@H](C)C[C@](C)(OC)[C@H]2OC(=O)CCOCCOCCCc2ccc3c(c2)c(=O)c(C(=O)O)cn3CC)[C@H](C)[C@@H](O[C@@H]2O[C@H](C)C[C@H](N(C)C)[C@H]2O)[C@](C)(OC)C[C@@H](C)C(=O)[C@H](C)[C@H]2N(C)C(=O)O[C@]12C ?
OUT: 0.5
